Numbers sourced from patent US8937069B2.

- TEST TARGET: IP receptor (Homo sapiens)
- ASSAY PROCEDURE: cAMP accumulation in CHO cells stably expressing the IP receptor (CHO-IP), PerkinElmer AlphaScreen assay
- RUN CONDITIONS: agonist activity, 1 hour at room temperature, 4-parameter logistic fit
ENDPOINT LABEL: EC50 (nM)

1. Cc1ccc(-c2nc3c(nc2-c2ccc(C)cc2)N(CCCCCCC(=O)O)C(=O)C3)cc1 [Example 15]
2. COc1ccc(-c2nc3c(cc(C4CC4)n3CCCCCCC(=O)O)nc2-c2ccc(C)cc2)cc1 [Example 10.6]
3. CCOC(=O)CCCCCCn1cc(CNC(C)C)c2nc(-c3ccc(C)cc3)c(-c3ccc(C)cc3)nc21 [Example 4.1]
4. COc1cc2nc(-c3ccc(C)cc3)c(-c3ccc(C)cc3)nc2n1CCCCCCC(=O)O [Example 5]
Could you please order the items by EC50, going from the lowest number to the highest? Give your ranking as a list of the labels in the requested order. 4, 1, 2, 3

----------
- TEST TARGET: IP receptor (Homo sapiens, UniProt P43119)
- Sequence (P43119 whole entry): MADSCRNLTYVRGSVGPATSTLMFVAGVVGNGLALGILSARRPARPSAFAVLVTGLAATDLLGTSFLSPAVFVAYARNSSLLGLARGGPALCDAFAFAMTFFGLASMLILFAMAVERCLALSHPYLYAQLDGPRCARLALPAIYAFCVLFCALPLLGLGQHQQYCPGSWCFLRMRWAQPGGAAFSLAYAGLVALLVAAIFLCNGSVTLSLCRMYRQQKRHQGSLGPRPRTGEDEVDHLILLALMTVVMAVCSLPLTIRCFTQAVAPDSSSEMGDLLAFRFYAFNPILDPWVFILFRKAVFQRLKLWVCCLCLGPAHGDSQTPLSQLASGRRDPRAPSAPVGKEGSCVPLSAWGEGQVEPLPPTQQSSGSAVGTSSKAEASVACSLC
- ASSAY PROCEDURE: cAMP accumulation in CHO cells stably expressing the IP receptor (CHO-IP), PerkinElmer AlphaScreen assay
- RUN CONDITIONS: agonist activity, 1 hour at room temperature, 4-parameter logistic fit
ENDPOINT LABEL: EC50 (nM)

>>> quantitative_readout("Cc1ccc(-c2nc3c(C=O)cn(CCCCCCC(=O)O)c3nc2-c2ccc(C)cc2)cc1")
7.1

a. O=C(O)CCCCCCn1c(C2CC2)cc2nc(-c3ccccc3)c(-c3ccccc3)nc21
b. CCOC(=O)CCCCCCn1cc(CO)c2nc(-c3ccc(C)cc3)c(-c3ccc(C)cc3)nc21
c. Cc1ccc(-c2nc3cc(C4CC4)n(CCCCCCC(=O)O)c3nc2-c2ccc(C)cc2)cc1
In this exercise, place the 3 molecules in ascending sequence of their recorded EC50. Give your ranking as a list of the labels in the requested order. a, c, b
(a: 0.5 nM, c: 1.7 nM, b: 325 nM)

----------
- TEST TARGET: IP receptor (Homo sapiens)
- ASSAY PROCEDURE: cAMP accumulation in CHO cells stably expressing the IP receptor (CHO-IP), PerkinElmer AlphaScreen assay
- RUN CONDITIONS: agonist activity, 1 hour at room temperature, 4-parameter logistic fit
ENDPOINT LABEL: EC50 (nM)

Below: 5 compounds and their reported EC50.
>>> quantitative_readout("CCOC(=O)CCCCCCN1CCc2nc(-c3ccc(C)cc3)c(-c3ccc(C)cc3)nc21 [Example 6]")
1.8
>>> quantitative_readout("CCOC(=O)CCCCCCn1c(C2CC2)cc2nc(-c3ccc(C)cc3)c(-c3ccc(C)cc3)nc21 [Example 1.1]")
57.5
>>> quantitative_readout("Cc1ccc(-c2nc3ccn(CCCCCCC(=O)O)c3nc2-c2ccc(C)cc2)cc1 [Example 1.5]")
6.9
>>> quantitative_readout("Cc1ccc(-c2nc3cc(C4CC4)n(CCCCC(=O)O)c3nc2-c2ccc(C)cc2)cc1 [Example 12]")
660
>>> quantitative_readout("Cc1ccc(-c2nc3c(cc(C4CC4)n3CCCCCCC(=O)O)nc2-c2cccc(C)c2)cc1 [Example 10.8]")
2.5

I. Cc1ccc(-c2nc3c(CO)cn(CCCCCCC(=O)O)c3nc2-c2ccc(C)cc2)cc1 [Example 2.2]
II. Cc1ccc(-c2nc3c(CNC(C)C)cn(CCCCCCC(=O)O)c3nc2-c2ccc(C)cc2)cc1 [Example 4.2]
III. CCOC(=O)CCCCCCn1c(C(C)C)cc2nc(-c3ccc(C)cc3)c(-c3ccc(C)cc3)nc21 [Example 1.3]
IV. CCc1ccc(-c2nc3c(cc(C4CC4)n3CCCCCCC(=O)O)nc2-c2ccc(C)cc2)cc1 [Example 10.5]
Sort these compounds on EC50 so the largest reading comes first. Give your ranking as a list of the labels in the requested order. III, II, I, IV
